molecular target: Sortase A (Staphylococcus aureus); assay: Inhibition of Staphylococcus aureus sortase A using dabcyl-QALPETGEE-edans as substrate incubated for 1 hr prior to substrate addition measured at 1 min interval for 1 hr by FRET analysis; settings: read-out: IC50
Sequence (Q9S446 whole entry): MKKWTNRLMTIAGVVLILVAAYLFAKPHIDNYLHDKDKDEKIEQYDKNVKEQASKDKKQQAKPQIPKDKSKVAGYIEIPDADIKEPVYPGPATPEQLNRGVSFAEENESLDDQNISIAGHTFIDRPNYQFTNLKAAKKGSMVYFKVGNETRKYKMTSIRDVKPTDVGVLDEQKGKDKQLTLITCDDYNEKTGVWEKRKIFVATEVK
Value kind: IC50 (µM)
The figure you give is taken to be in µM; do not add the unit.

Compound string: CC12CC3(C)CC(O)(C1)CC(NC(=O)CCn1sc4ccccc4c1=O)(C2)C3
Target: Sortase A (Staphylococcus aureus)
IC50 / µM: 7.06
//
Compound string: CC12CC3CC(C)(C1)CC(NC(=O)CCn1sc4cccc(F)c4c1=O)(C3)C2
Target: Sortase A (Staphylococcus aureus)
IC50 / µM: 4.07
//
Compound string: COC(=O)C12CC3CC(CC(NC(=O)CCn4sc5ccccc5c4=O)(C3)C1)C2
Target: Sortase A (Staphylococcus aureus)
IC50 / µM: 5.08
//
Compound string: O=C(CCn1sc2cccc(F)c2c1=O)NNC(=O)C12CC3CC(CC(C3)C1)C2
Target: Sortase A (Staphylococcus aureus)
IC50 / µM: 3.39
//
Compound string: CC12CC3(C)CC(O)(C1)CC(NC(=O)Cn1sc4ccccc4c1=O)(C2)C3
Target: Sortase A (Staphylococcus aureus)
IC50 / µM: 3.87

Measured IC50 of CC12CC3CC(C)(C1)CC(NC(=O)Cn1sc4ccccc4c1=O)(C3)C2 : 4.99

Measured IC50 of COC(=O)C12CC3CC(CC(NC(=O)CCn4sc5cccc(F)c5c4=O)(C3)C1)C2 : 5.06

Measured IC50 of O=C(CCn1sc2cccc(F)c2c1=O)NC12CC3CC(CC(C3)C1)C2 : 4.01

Measured IC50 of CN(C)CCC(=O)c1ccc(Cl)c(Cl)c1 : 16.9

Measured IC50 of O=C(CCn1sc2ccccc2c1=O)NNC(=O)C12CC3CC(CC(C3)C1)C2 : 4.22

###

Entries annotated with measured MIC
system: Staphylococcus epidermidis; test: Antibacterial activity against Staphylococcus epidermidis ATCC 12228 after 24 hrs by broth dilution method; format: functional; conditions: ATCC 12228, 24 h
The figure you give is taken to be in µM; do not add the unit.

Here's what some known entries look like.
Compound string: CC12CC3(C)CC(O)(C1)CC(NC(=O)CCn1sc4ccccc4c1=O)(C2)C3
MIC / µM: 40

Compound string: CC12CC3(C)CC(O)(C1)CC(NC(=O)Cn1sc4ccccc4c1=O)(C2)C3
MIC / µM: 20.7

Compound string: CC12CC3CC(C)(C1)CC(NC(=O)Cn1sc4ccccc4c1=O)(C3)C2
MIC / µM: 43.2

Compound string: CC12CC3CC(C)(C1)CC(NC(=O)CCn1sc4ccccc4c1=O)(C3)C2
MIC / µM: 20.8

Compound string: O=C(CCn1sc2ccccc2c1=O)NC12CC3CC(CC(O)(C3)C1)C2
MIC / µM: 85.9

Compound string: O=C(CCn1sc2ccccc2c1=O)NNC(=O)C12CC3CC(CC(C3)C1)C2
MIC / µM: 10

Measured MIC of COC(=O)C12CC3CC(CC(NC(=O)CCn4sc5cccc(F)c5c4=O)(C3)C1)C2 : 18.5

Measured MIC of O=C(CCn1sc2ccccc2c1=O)NC12CC3CC(CC(C3)C1)C2 : 5.61

Measured MIC of O=C(CCn1sc2cccc(F)c2c1=O)NC12CC3CC(CC(C3)C1)C2 : 10.7

Measured MIC of COC(=O)C12CC3CC(CC(NC(=O)CCn4sc5ccccc5c4=O)(C3)C1)C2 : 19.3

Measured MIC of O=C(Cn1sc2ccccc2c1=O)NNC(=O)C12CC3CC(CC(C3)C1)C2 : 10.4

Measured MIC of CC12CC3CC(C)(C1)CC(NC(=O)CCn1sc4cccc(F)c4c1=O)(C3)C2 : 2.48

Measured MIC of O=C(Cn1sc2ccccc2c1=O)NC12CC3CC(CC(C3)C1)C2 : 1.46

Measured MIC of O=C(CCn1sc2cccc(F)c2c1=O)NNC(=O)C12CC3CC(CC(C3)C1)C2 : 19.2

Measured MIC of CC12CC3(C)CC(O)(C1)CC(NC(=O)CCn1sc4cccc(F)c4c1=O)(C2)C3 : 38.2

Measured MIC of CN(C)CCC(=O)c1ccc(Cl)c(Cl)c1 : 56.6

Measured MIC of O=C(CCn1sc2cccc(F)c2c1=O)NC12CC3CC(CC(O)(C3)C1)C2 : 164

Measured MIC of O=C(O)CCn1sc2ccccc2c1=O : 287
